- System: Escherichia coli
- assay.name: Antibacterial activity against Escherichia coli ATCC 25922
- Assay type: functional
Recorded MIC values for a group of compounds are listed next.
Report the value in µg/mL with no unit label.

Sample answers from the record:
- compound: "CC(C)Cc1ccc(C(C)CN2C(=N)N([C@H](CC3CCCCC3)CN3CCCC3CN3C(N)=NC[C@@H]3C)C[C@H]2CC2CCCCC2)cc1 (stereo partly drawn)"
  unit.abbreviation: "µg/mL"
  MIC: 5
- compound: "C[C@H]1CN=C(N)N1CC1CCCN1C[C@@H](CC1CCCCC1)N1C[C@H](CC2CCCCC2)N(CCc2cc(C(F)(F)F)cc(C(F)(F)F)c2)C1=N (stereo partly drawn)"
  unit.abbreviation: "µg/mL"
  MIC: 5

Turning to the following compound.
Input: Kindly indicate its recorded MIC. Item: CC(C)Cc1ccc(C(C)CN2C(=N)N([C@H](CC3CCCCC3)CN3CCCC3CN3C(N)=NC[C@@H]3Cc3ccccc3)C[C@H]2CC2CCCCC2)cc1 (stereo partly drawn)
Output: 5
